Reported inhibition at 10 µM by item:
test system: MDA-MB-435; experiment: NCI one-dose SRB anti-proliferative screen; format: cell-based; conditions: Homo sapiens; MDA-MB-435, Melanoma; NCI one dose; read-out: Cell growth inhibition %
outcome-measure: inhibition at 10 µM

1) COc1ccc(-c2nc3cc(-c4nnc(SCC(=O)Nc5ccc(C(=O)/C=C/c6ccc(Cl)cc6)cc5)o4)ccc3[nH]2)cc1 :: 0.7%
2) COc1ccc(/C=C/C(=O)c2ccc(NC(=O)CSc3nnc(-c4ccc5[nH]c(-c6ccccc6)nc5c4)o3)cc2)cc1OC :: 0%
3) COc1ccc(-c2nc3cc(-c4nnc(SCC(=O)Nc5ccc(C(=O)/C=C/c6cc(OC)c(OC)c(OC)c6)cc5)o4)ccc3[nH]2)cc1 :: 0%
4) O=C(CSc1nnc(-c2ccc3[nH]c(-c4ccccc4)nc3c2)o1)Nc1ccc(C(=O)/C=C/c2ccccc2)cc1 :: 0%
5) COc1cc(/C=C/C(=O)c2ccc(NC(=O)CSc3nnc(-c4ccc5[nH]c(-c6ccccc6)nc5c4)o3)cc2)cc(OC)c1OC :: 5.93%
6) COc1ccc(/C=C/C(=O)c2ccc(NC(=O)CSc3nnc(-c4ccc5[nH]c(-c6ccccc6)nc5c4)o3)cc2)cc1 :: 0%

* * *

Test system: HOP-62
Test: NCI one-dose SRB anti-proliferative screen
Type: cell-based
Settings: Homo sapiens; HOP-62 (Non-Small Cell Lung Cancer), NCI one dose 10 µM; read-out: Cell growth inhibition %
Description: The twenty-four synthesized compounds were submitted to the National Cancer Institute (NCI), USA. Eighteen hybrids 7a-h, 7k-r, 7u, and 7v were selected by NCI for one-dose assessment of their anti-proliferative activities at 10 µM dose by Sulforhodamine B colorimetric assay. The assessment was performed in 60 cell lines derived from nine tumor subpanels, comprising lung, leukemia, melanoma, colon, renal, CNS, prostate, breast, and ovarian cancer cell lines. […]
outcome-measure: inhibition at 10 µM (%)

1) O=C(CSc1nnc(-c2ccc3[nH]c(-c4ccc(Cl)cc4)nc3c2)o1)Nc1ccc(C(=O)/C=C/c2ccccc2)cc1 [Compound 7f] :: 0
2) O=C(CSc1nnc(-c2ccc3[nH]c(-c4ccc(Cl)cc4)nc3c2)o1)Nc1ccc(C(=O)/C=C/c2ccc(Cl)cc2)cc1 [Compound 7g] :: 2.12
3) COc1ccc(/C=C/C(=O)c2ccc(NC(=O)CSc3nnc(-c4ccc5[nH]c(-c6ccc(OC)c(OC)c6)nc5c4)o3)cc2)cc1 [Compound 7r] :: 0
4) COc1ccc(-c2nc3cc(-c4nnc(SCC(=O)Nc5ccc(C(=O)/C=C/c6ccc(Cl)cc6)cc5)o4)ccc3[nH]2)cc1OC [Compound 7q] :: 0
5) COc1cc(-c2nc3cc(-c4nnc(SCC(=O)Nc5ccc(C(=O)/C=C/c6ccc(Cl)cc6)cc5)o4)ccc3[nH]2)cc(OC)c1OC [Compound 7v] :: 0

* * *

tested on: SNB-19; assay: NCI one-dose SRB anti-proliferative screen; type: cell-based; details: Homo sapiens; SNB-19 (CNS Cancer), NCI one dose 10 µM; read-out: Cell growth inhibition %
Reported inhibition at 10 µM by item:
outcome-measure: inhibition at 10 µM (%)

1. COc1ccc(/C=C/C(=O)c2ccc(NC(=O)CSc3nnc(-c4ccc5[nH]c(-c6ccc(OC)c(OC)c6)nc5c4)o3)cc2)cc1 :: 0
2. COc1ccc(-c2nc3cc(-c4nnc(SCC(=O)Nc5ccc(C(=O)/C=C/c6ccc(Cl)cc6)cc5)o4)ccc3[nH]2)cc1OC :: 0
3. O=C(CSc1nnc(-c2ccc3[nH]c(-c4ccc(Cl)cc4)nc3c2)o1)Nc1ccc(C(=O)/C=C/c2ccc(Cl)cc2)cc1 :: 0.54
4. COc1ccc(-c2nc3cc(-c4nnc(SCC(=O)Nc5ccc(C(=O)/C=C/c6ccccc6)cc5)o4)ccc3[nH]2)cc1OC :: 0
5. COc1cc(-c2nc3cc(-c4nnc(SCC(=O)Nc5ccc(C(=O)/C=C/c6ccccc6)cc5)o4)ccc3[nH]2)cc(OC)c1OC :: 0
6. COc1cc(-c2nc3cc(-c4nnc(SCC(=O)Nc5ccc(C(=O)/C=C/c6ccc(Cl)cc6)cc5)o4)ccc3[nH]2)cc(OC)c1OC :: 6.59
7. COc1ccc(/C=C/C(=O)c2ccc(NC(=O)CSc3nnc(-c4ccc5[nH]c(-c6ccc(Cl)cc6)nc5c4)o3)cc2)cc1 :: 0
